Exercise: for every item that follows, state its recorded polymerase ribozyme fitness (log ratio).
B1: TPR t1 (parent)
chain: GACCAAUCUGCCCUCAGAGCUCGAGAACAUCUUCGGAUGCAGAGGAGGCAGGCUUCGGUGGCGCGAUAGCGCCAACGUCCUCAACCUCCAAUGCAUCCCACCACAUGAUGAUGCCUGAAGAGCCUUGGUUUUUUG

# Variants of: B1
# Assay Method Text: polymerase ribozyme fitness, log enrichment relative to wild type (log ratio); higher = more active; in vitro selection for triplet polymerase activity
One number for each entry.

Variant Key | polymerase ribozyme fitness (log ratio)
C20U G42A | -2.49
A41U C56A C72U U92G | -1.3
U87G A91U U109A U125C | -5.71
G63C C86A U96G C102A | -5.23
C8A C64G A111G A121C U129A | -6.98

Look up polymerase ribozyme fitness (log ratio) for this variant: A41U A43U G69C G77C G93A C124G U131A
-1.81
